Data credit: ChEMBL document CHEMBL1944561

Each entry below carries its reported pIC50.
Target: Serine/threonine-protein kinase mTOR (Homo sapiens)
Experiment: Inhibition of mTOR
Expect pIC50 as a plain number equal to -log10 of the molar concentration.

// recorded pIC50 for `O=c1[nH]c2ncc(-c3ccc4[nH]ccc4c3)nc2n1CC1CCCCC1` : 7.20

// recorded pIC50 for `O=c1[nH]c2ncc(-c3ccc(-c4cnco4)cc3)nc2n1CC1CCCCC1` : 5.87

// recorded pIC50 for `O=c1[nH]c2ncc(-c3ccc(-c4nc[nH]n4)cc3)nc2n1CC1CCOCC1` : 8.70

// recorded pIC50 for `Nc1nc2ccc(-c3cnc4[nH]c(=O)n(CC5CCCCC5)c4n3)cc2[nH]1` : 8.70

// recorded pIC50 for `O=c1[nH]c2ncc(-c3ccc(-c4nn[nH]n4)cc3)nc2n1CC1CCCCC1` : 5.80

// recorded pIC50 for `O=c1[nH]c2ncc(-c3ccc(CO)cc3)nc2n1CC1CCCCC1` : 7.22

---

Molecular target: Serine/threonine-protein kinase mTOR (Homo sapiens, UniProt P42345)
Test: Inhibition of mTOR-mediated S6 phosphorylation in human PC3 cells
Format: cell-based, PC-3
Metric Name: pIC50
Expect pIC50 as a plain number equal to -log10 of the molar concentration.

Example entries and their recorded answers appear below.
[[record]]
cpd_smiles = "O=c1[nH]c2ncc(-c3ccc(-c4nc[nH]n4)cc3)nc2n1CC1CCOCC1"
val = 6.56

[[record]]
cpd_smiles = "O=c1[nH]c2ncc(-c3ccc4[nH]cnc4c3)nc2n1CC1CCCCC1"
val = 6.37

[[record]]
cpd_smiles = "Nc1nc2ccc(-c3cnc4[nH]c(=O)n(CC5CCCCC5)c4n3)cc2[nH]1"
val = 6.70

[[record]]
cpd_smiles = "CC(C)(O)c1ccc(-c2cnc3[nH]c(=O)n(CC4CCCCC4)c3n2)cc1"
val = 5.87

[[record]]
cpd_smiles = "O=c1[nH]c2ncc(-c3ccc4[nH]ccc4c3)nc2n1CC1CCOCC1"
val = 6.64


Please turn your attention to the following entry.
Query `O=c1[nH]c2ncc(-c3ccc4[nH]ncc4c3)nc2n1CC1CCCCC1` on Serine/threonine-protein kinase mTOR (Homo sapiens, UniProt P42345); pIC50 returned: 6.20

---

Target: Glycogen synthase kinase-3 alpha (Homo sapiens)
Sequence (P49840 whole entry): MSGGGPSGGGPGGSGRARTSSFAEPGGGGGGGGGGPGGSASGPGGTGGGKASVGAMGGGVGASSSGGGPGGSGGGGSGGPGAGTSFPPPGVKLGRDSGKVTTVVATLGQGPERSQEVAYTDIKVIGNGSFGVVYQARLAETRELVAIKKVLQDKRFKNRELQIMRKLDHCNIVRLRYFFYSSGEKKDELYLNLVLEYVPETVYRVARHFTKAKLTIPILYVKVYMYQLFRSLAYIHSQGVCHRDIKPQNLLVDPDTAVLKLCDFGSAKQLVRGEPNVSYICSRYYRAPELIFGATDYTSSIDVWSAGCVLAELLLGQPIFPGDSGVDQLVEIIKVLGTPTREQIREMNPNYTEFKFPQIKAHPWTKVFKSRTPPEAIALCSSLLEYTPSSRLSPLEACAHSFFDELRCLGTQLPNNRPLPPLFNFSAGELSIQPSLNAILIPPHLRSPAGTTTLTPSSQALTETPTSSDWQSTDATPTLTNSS
Metric Name: pIC50
Expect pIC50 as a plain number equal to -log10 of the molar concentration.

// recorded pIC50 for `CC(C)(O)c1ccc(-c2cnc3[nH]c(=O)n(CC4CCCCC4)c3n2)cc1` : 6.22

---

Molecular target: Phosphatidylinositol 4,5-bisphosphate 3-kinase catalytic subunit alpha isoform (Homo sapiens)
Assay: Inhibition of PI3Kalpha
Each entry below carries its reported IC50.

// recorded IC50 for `NC(=O)c1ccc(-c2cnc3[nH]c(=O)n(CC4CCCCC4)c3n2)cc1` : > 30 µM

// recorded IC50 for `CNc1nc2cc(-c3cnc4[nH]c(=O)n(CC5CCOCC5)c4n3)ccc2[nH]1` : > 30 µM

// recorded IC50 for `O=c1[nH]c2ncc(-c3ccc(CO)cc3)nc2n1CC1CCCCC1` : > 30 µM

---

Tested on: PC-3
Assay: Antiproliferative activity against human PC3 cells
pIC50: −log10 of the molar value.
The label depends only on pIC50: T if it is at least 6, F if it is smaller.

[[record]]
cpd_smiles = "Nc1nc2ccc(-c3cnc4[nH]c(=O)n(CC5CCCCC5)c4n3)cc2[nH]1"
measured_target = "PC-3"
assigned_label = "T"


Ask: Does the reported pIC50 for `O=c1[nH]c2ncc(-c3ccc4[nH]ccc4c3)nc2n1CC1CCOCC1` fall at or above the 6 mark?
Reply: T

---

Biological target: Serine/threonine-protein kinase mTOR (Homo sapiens, UniProt P42345)
Assay: Inhibition of mTOR-mediated Akt phosphorylation in human PC3 cells
Format: cell-based, PC-3
Metric Name: IC50 (nM)
Write the value in nM as a bare number.

Example entries and their recorded answers appear below.
[[record]]
cpd_smiles = "O=c1[nH]c2ncc(-c3ccc4[nH]cnc4c3)nc2n1CC1CCCCC1"
metric_name = "IC50"
val = 137

[[record]]
cpd_smiles = "O=c1[nH]c2ncc(-c3ccc4[nH]ccc4c3)nc2n1CC1CCOCC1"
metric_name = "IC50"
val = 50

[[record]]
cpd_smiles = "O=c1[nH]c2ncc(-c3ccc(-c4nc[nH]n4)cc3)nc2n1CC1CCOCC1"
metric_name = "IC50"
val = 150


// recorded IC50 for `Nc1nc2ccc(-c3cnc4[nH]c(=O)n(CC5CCCCC5)c4n3)cc2[nH]1` : 92

// recorded IC50 for `CC(C)(O)c1ccc(-c2cnc3[nH]c(=O)n(CC4CCCCC4)c3n2)cc1` : 322

---

Each entry below carries its reported remaining at 1 h.
Experiment: Metabolic stability in rat hepatocytes assessed as compound remaining after 60 mins
Assay type: ADME, cell-based, Hepatocyte
Conditions: read-out: Stability
Write the value in % as a bare number.

[[record]]
cpd_smiles = "O=c1[nH]c2ncc(-c3ccc(CO)cc3)nc2n1CC1CCCCC1"
val = 8


Please turn your attention to the following entry.
// recorded remaining at 1 h for `CC(C)(O)c1ccc(-c2cnc3[nH]c(=O)n(CC4CCCCC4)c3n2)cc1` : 65

---

Target: Serine/threonine-protein kinase mTOR (Homo sapiens)
Assay: Inhibition of mTOR
pIC50: −log10 of the molar value.
Category scheme (pIC50): band A (below 6), band B (6 to below 7), band C (7 or more)

Answered cases to consult:
[[record]]
cpd_smiles = "O=c1[nH]c2ncc(-c3ccc(-n4ccnn4)cc3)nc2n1CC1CCCCC1"
measured_target = "Serine/threonine-protein kinase mTOR (Homo sapiens)"
assigned_label = "band A"

[[record]]
cpd_smiles = "O=c1[nH]c2ncc(-c3ccc(O)cc3)nc2n1C1CCCCC1"
measured_target = "Serine/threonine-protein kinase mTOR (Homo sapiens)"
assigned_label = "band A"

[[record]]
cpd_smiles = "O=c1[nH]c2ncc(-c3ccccc3)nc2n1CC1CCCCC1"
measured_target = "Serine/threonine-protein kinase mTOR (Homo sapiens)"
assigned_label = "band A"

[[record]]
cpd_smiles = "COC(=O)c1ccc(-c2cnc3[nH]c(=O)n(CC4CCCCC4)c3n2)cc1"
measured_target = "Serine/threonine-protein kinase mTOR (Homo sapiens)"
assigned_label = "band A"

[[record]]
cpd_smiles = "COCCn1c(=O)[nH]c2ncc(-c3ccc(O)cc3)nc21"
measured_target = "Serine/threonine-protein kinase mTOR (Homo sapiens)"
assigned_label = "band A"


Ask: In plain terms, what class is `NC(=O)[C@H]1CC[C@@H](n2c(=O)[nH]c3ncc(-c4ccc(O)cc4)nc32)CC1` ?
Reply: band B

Ask: In plain terms, what class is `CC(C)NC(=O)c1ccc(-c2cnc3[nH]c(=O)n(CC4CCCCC4)c3n2)cc1` ?
Reply: band A

Ask: In plain terms, what class is `O=c1[nH]c2ncc(-c3ccc4[nH]ncc4c3)nc2n1CC1CCCCC1` ?
Reply: band B

Ask: In plain terms, what class is `O=c1[nH]c2ncc(-c3ccc4[nH]ccc4c3)nc2n1CC1CCOCC1` ?
Reply: band C

Ask: In plain terms, what class is `NC(=O)[C@H]1CC[C@H](n2c(=O)[nH]c3ncc(-c4ccc(O)cc4)nc32)CC1` ?
Reply: band B

Ask: In plain terms, what class is `O=c1[nH]c2ncc(-c3cnc4[nH]cnc4c3)nc2n1CC1CCOCC1` ?
Reply: band B

Ask: In plain terms, what class is `O=c1[nH]c2ncc(-c3ccc4[nH]cnc4c3)nc2n1CC1CCOCC1` ?
Reply: band C

Ask: In plain terms, what class is `O=c1[nH]c2ncc(-c3ccc(O)cc3)nc2n1CC1CCOCC1` ?
Reply: band B

---

Each entry below carries its reported IC50.
Molecular target: Serine/threonine-protein kinase mTOR (Homo sapiens)
Assay: Inhibition of mTOR-mediated S6 phosphorylation in human PC3 cells
Format: cell-based, PC-3

[[record]]
cpd_smiles = "NC(=O)[C@H]1CC[C@@H](n2c(=O)[nH]c3ncc(-c4ccc(O)cc4)nc32)CC1"
val = "> 5 µM"

[[record]]
cpd_smiles = "CNc1nc2cc(-c3cnc4[nH]c(=O)n(CC5CCOCC5)c4n3)ccc2[nH]1"
val = "> 5 µM"


Please turn your attention to the following entry.
// recorded IC50 for `NC(=O)[C@H]1CC[C@H](n2c(=O)[nH]c3ncc(-c4ccc(O)cc4)nc32)CC1` : > 5 µM

---

Biological target: Phosphatidylinositol 4,5-bisphosphate 3-kinase catalytic subunit alpha isoform (Homo sapiens, UniProt P42336)
Sequence (P42336 whole entry, canonical isoform): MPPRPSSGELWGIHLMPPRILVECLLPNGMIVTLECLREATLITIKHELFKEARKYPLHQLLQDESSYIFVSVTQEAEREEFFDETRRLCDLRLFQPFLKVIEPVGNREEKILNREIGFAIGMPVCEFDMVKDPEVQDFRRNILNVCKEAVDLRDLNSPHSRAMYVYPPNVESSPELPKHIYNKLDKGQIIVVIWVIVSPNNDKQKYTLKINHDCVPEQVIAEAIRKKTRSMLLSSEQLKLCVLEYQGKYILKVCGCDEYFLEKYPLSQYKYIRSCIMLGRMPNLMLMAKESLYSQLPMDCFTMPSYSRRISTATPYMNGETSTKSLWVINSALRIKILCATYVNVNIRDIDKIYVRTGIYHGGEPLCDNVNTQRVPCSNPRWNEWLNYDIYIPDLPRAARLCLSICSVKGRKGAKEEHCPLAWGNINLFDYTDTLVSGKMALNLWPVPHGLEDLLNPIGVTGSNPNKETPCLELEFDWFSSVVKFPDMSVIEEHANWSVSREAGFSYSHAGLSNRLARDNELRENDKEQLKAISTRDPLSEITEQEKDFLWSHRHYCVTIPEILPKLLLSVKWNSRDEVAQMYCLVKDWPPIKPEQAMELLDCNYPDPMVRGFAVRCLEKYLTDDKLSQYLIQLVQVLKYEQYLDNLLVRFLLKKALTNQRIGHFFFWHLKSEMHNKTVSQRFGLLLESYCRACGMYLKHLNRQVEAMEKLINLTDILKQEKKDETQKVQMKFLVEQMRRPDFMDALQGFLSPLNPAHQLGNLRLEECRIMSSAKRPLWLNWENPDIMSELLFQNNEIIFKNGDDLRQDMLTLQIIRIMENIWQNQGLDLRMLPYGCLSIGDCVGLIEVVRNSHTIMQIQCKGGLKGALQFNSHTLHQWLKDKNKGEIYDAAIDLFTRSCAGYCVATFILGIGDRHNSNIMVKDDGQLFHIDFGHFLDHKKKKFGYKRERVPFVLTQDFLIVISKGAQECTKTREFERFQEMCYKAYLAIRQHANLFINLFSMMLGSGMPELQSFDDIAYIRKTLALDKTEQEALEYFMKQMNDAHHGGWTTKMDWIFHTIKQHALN
Assay: Inhibition of PI3Kalpha
Metric Name: pIC50
Expect pIC50 as a plain number equal to -log10 of the molar concentration.

Example entries and their recorded answers appear below.
[[record]]
cpd_smiles = "O=c1[nH]c2ncc(-c3ccc(-c4nc[nH]n4)cc3)nc2n1CC1CCOCC1"
metric_name = "pIC50"
val = 5.59

[[record]]
cpd_smiles = "CC(C)(O)c1ccc(-c2cnc3[nH]c(=O)n(CC4CCCCC4)c3n2)cc1"
metric_name = "pIC50"
val = 4.66

[[record]]
cpd_smiles = "O=C(O)c1ccc(-c2cnc3[nH]c(=O)n(CC4CCCCC4)c3n2)cc1"
metric_name = "pIC50"
val = 4.63

[[record]]
cpd_smiles = "O=c1[nH]c2ncc(-c3ccc4[nH]cnc4c3)nc2n1CC1CCCCC1"
metric_name = "pIC50"
val = 4.70


Please turn your attention to the following entry.
// recorded pIC50 for `O=c1[nH]c2ncc(-c3ccc4[nH]ncc4c3)nc2n1CC1CCCCC1` : 4.90
